Entry source: ChEMBL document CHEMBL6096647

Test system: CAL-27
Assay: Anticancer activity against human CAL-27 cells assessed as reduction in cell survival incubated for 72 hrs by MTT assay
Conditions: CAL-27, 72 h
pIC50: −log10 of the molar value.
Quick reference for pIC50 among some compounds
Observable: pIC50

compound="CC(=O)N(CC1CCN(c2ncc(C(=O)NO)cn2)CC1)C1(C(=O)NCc2ccccc2)CCNC1 (centres undefined)" target_desc=CAL-27 observable=pIC50 limit_sign=< obs_value=4.30
compound=O=C(NO)c1cnc(N2CCC(CNCc3nnnn3CCc3c[nH]c4ccccc34)CC2)nc1 target_desc=CAL-27 observable=pIC50 limit_sign== obs_value=5.01
compound=O=C(NO)c1cnc(N2CCC(CNCc3nnnn3C3CCCCC3)CC2)nc1 target_desc=CAL-27 observable=pIC50 limit_sign== obs_value=5.69
compound=O=C(NO)c1cnc(N2CCC(CNCc3nnnn3C3CCCC3)CC2)nc1 target_desc=CAL-27 observable=pIC50 limit_sign== obs_value=5.58
compound=CN(C)c1ccc(C(=O)N(CC(=O)NCc2ccccc2)CC2CCN(c3ncc(C(=O)NO)cn3)CC2)cc1 target_desc=CAL-27 observable=pIC50 limit_sign== obs_value=5.82
compound="CC(=O)N(CC1CCN(c2ncc(C(=O)NO)cn2)CC1)C1(C(=O)NCc2ccccc2)CCOC1 (centres undefined)" target_desc=CAL-27 observable=pIC50 limit_sign== obs_value=4.56
compound="O=CN(CC1CCN(c2ncc(C(=O)NO)cn2)CC1)C1(C(=O)NCCc2c[nH]c3ccccc23)CCNC1 (centres undefined)" target_desc=CAL-27 observable=pIC50 limit_sign=< obs_value=4.30
compound=CC(C)(C)CC(C)(C)n1nnnc1CNCC1CCN(c2ncc(C(=O)NO)cn2)CC1 target_desc=CAL-27 observable=pIC50 limit_sign== obs_value=5.94
compound="O=CN(CC1CCN(c2ncc(C(=O)NO)cn2)CC1)C1(C(=O)NCc2ccccc2)CCNC1 (centres undefined)" target_desc=CAL-27 observable=pIC50 limit_sign== obs_value=4.62

* * *

Experiment: Cytotoxicity against human MRC5 cells assessed as reduction in cell survival measured after 72 hrs by MTT assay
Observable: IC50 at 72 h (µM)

molecule=O=C(NO)c1cnc(N2CCC(CNCc3nnnn3CCc3c[nH]c4ccccc34)CC2)nc1 reading_unit=µM limit_sign== obs_value=43.8
molecule="CC(=O)N(CC1CCN(c2ncc(C(=O)NO)cn2)CC1)C1(C(=O)NCCc2c[nH]c3ccccc23)CCNC1 (stereo not given)" reading_unit=µM limit_sign=> obs_value=50
molecule=CN(C)c1ccc(C(=O)N(CC(=O)NCc2ccccc2)CC2CCN(c3ncc(C(=O)NO)cn3)CC2)cc1 reading_unit=µM limit_sign== obs_value=6.17
molecule=O=C(NO)c1cnc(N2CCC(CNCc3nnnn3Cc3ccccc3)CC2)nc1 reading_unit=µM limit_sign== obs_value=16.3
molecule="CC(=O)N(CC1CCN(c2ncc(C(=O)NO)cn2)CC1)C1(C(=O)NCc2ccccc2)CCNC1 (stereo not given)" reading_unit=µM limit_sign=> obs_value=50

* * *

Tested on: Plasmodium falciparum
Test: microbe, parasite or virus in culture
Conditions: 3D7, Erythrocyte, 72 h
Description: Antiplasmodial activity against intra-erythrocytic stage of chloroquine-sensitive Plasmodium falciparum 3D7 infected in erythrocytes assessed as inhibition of parasite growth by measuring HRP2 level after 72 hrs by ELISA
Observable: IC50

molecule=CC(C)(C)n1nnnc1CNCC1CCN(c2ncc(C(=O)NO)cn2)CC1 observable=IC50 obs_value="230 nM"
molecule=O=C(NO)c1cnc(N2CCC(CNCc3nnnn3C3CCCCC3)CC2)nc1 observable=IC50 obs_value="160 nM"
molecule="O=CN(CC1CCN(c2ncc(C(=O)NO)cn2)CC1)C1(C(=O)NCCc2c[nH]c3ccccc23)CCNC1 (configuration not stated)" observable=IC50 obs_value="71 nM"
molecule="Cn1cc(CNCC2CCN(c3ncc(C(=O)NO)cn3)CC2)c2ccccc21 [QUISINOSTAT]" observable=IC50 obs_value="2 nM"
molecule="CC(=O)N(CC1CCN(c2ncc(C(=O)NO)cn2)CC1)C1(C(=O)NC(C)(C)C)CCNC1 (configuration not stated)" observable=IC50 obs_value="300 nM"
molecule=CC(C)(C)CC(C)(C)n1nnnc1CNCC1CCN(c2ncc(C(=O)NO)cn2)CC1 observable=IC50 obs_value="100 nM"
molecule="O=CN(CC1CCN(c2ncc(C(=O)NO)cn2)CC1)C1(C(=O)NCc2ccccc2)CCNC1 (configuration not stated)" observable=IC50 obs_value="23 nM"

* * *

Quick reference for IC50 at 72 h among some compounds
Assay: Cytotoxicity against human MRC5 cells assessed as reduction in cell survival measured after 72 hrs by MTT assay
Observable: IC50 at 72 h

compound=Cc1ccc(C(=O)N(CC(=O)NC2CCCCC2)CC2CCN(c3ncc(C(=O)NO)cn3)CC2)c(C)c1 obs_value="2.32 µM"
compound=O=C(NO)c1cnc(N2CCC(CNCc3nnnn3C3CCCCC3)CC2)nc1 obs_value="7.18 µM"
compound="CC(=O)N(CC1CCN(c2ncc(C(=O)NO)cn2)CC1)C1(C(=O)NCc2ccccc2)CCOC1 (centres undefined)" obs_value="> 50 µM"
compound=O=C(NO)c1cnc(N2CCC(CNCc3nnnn3C3CCCC3)CC2)nc1 obs_value="9.94 µM"
compound=Cn1cc(CNCC2CCN(c3ncc(C(=O)NO)cn3)CC2)c2ccccc21 obs_value="0.044 µM"
compound=CC(C)c1ccc(C(=O)N(CC(=O)NCc2ccccc2)CC2CCN(c3ncc(C(=O)NO)cn3)CC2)cc1 obs_value="8.94 µM"
compound="CC(=O)N(CC1CCN(c2ncc(C(=O)NO)cn2)CC1)C1(C(=O)NC(C)(C)C)CCNC1 (centres undefined)" obs_value="> 50 µM"
compound=CC(C)(C)n1nnnc1CNCC1CCN(c2ncc(C(=O)NO)cn2)CC1 obs_value="14.6 µM"
compound="O=CN(CC1CCN(c2ncc(C(=O)NO)cn2)CC1)C1(C(=O)NCCc2c[nH]c3ccccc23)CCNC1 (centres undefined)" obs_value="> 50 µM"

* * *

Test system: A2780
Assay: Antiproliferative activity against human A2780 cells assessed as cell viability measured after 72 hrs by MTT assay
Conditions: A2780, 72 h
Quick reference for IC50 among some compounds
Observable: IC50 (nM)

compound=CC(C)c1ccc(C(=O)N(CC(=O)NC2CCCCC2)CC2CCN(c3ncc(C(=O)NO)cn3)CC2)cc1 obs_value=190
compound=Cn1cc(CNCC2CCN(c3ncc(C(=O)NO)cn3)CC2)c2ccccc21 obs_value=26

* * *

Assay: Cytotoxicity against human MRC5 cells assessed as reduction in cell survival measured after 72 hrs by MTT assay
Observable: IC50 at 72 h (µM)

compound=CC(C)c1ccc(C(=O)N(CC(=O)NC2CCCCC2)CC2CCN(c3ncc(C(=O)NO)cn3)CC2)cc1 observable="IC50 at 72 h" reading_unit=µM limit_sign== obs_value=3.19
compound="O=CN(CC1CCN(c2ncc(C(=O)NO)cn2)CC1)C1(C(=O)NCc2ccccc2)CCNC1 (stereo not drawn)" observable="IC50 at 72 h" reading_unit=µM limit_sign=> obs_value=50
compound=CC(C)(C)CC(C)(C)n1nnnc1CNCC1CCN(c2ncc(C(=O)NO)cn2)CC1 observable="IC50 at 72 h" reading_unit=µM limit_sign== obs_value=4.01

* * *

Quick reference for pIC50 among some compounds
Tested on: Plasmodium falciparum
Assay: microbe, parasite or virus in culture
Conditions: 3D7, Erythrocyte, 72 h
pIC50: −log10 of the molar value.
Observable: pIC50

compound=CN(C)c1ccc(C(=O)N(CC(=O)NCc2ccccc2)CC2CCN(c3ncc(C(=O)NO)cn3)CC2)cc1 obs_value=7.47
compound=CC(C)c1ccc(C(=O)N(CC(=O)NC2CCCCC2)CC2CCN(c3ncc(C(=O)NO)cn3)CC2)cc1 obs_value=7.16
compound=O=C(NO)c1cnc(N2CCC(CNCc3nnnn3C3CCCC3)CC2)nc1 obs_value=6.68
compound="CC(=O)N(CC1CCN(c2ncc(C(=O)NO)cn2)CC1)C1(C(=O)NCCc2c[nH]c3ccccc23)CCNC1 (stereo not given)" obs_value=6.82
compound=O=C(NO)c1cnc(N2CCC(CNCc3nnnn3CCc3c[nH]c4ccccc34)CC2)nc1 obs_value=6.82

* * *

Quick reference for IC50 among some compounds
Tested on: HepG2
Assay: Anticancer activity against human HepG2 cells assessed as reduction in cell survival incubated for 72 hrs by MTT assay
Conditions: HepG2, 72 h
Observable: IC50 (nM)

compound="O=CN(CC1CCN(c2ncc(C(=O)NO)cn2)CC1)C1(C(=O)NCCc2c[nH]c3ccccc23)CCNC1 (configuration not stated)" observable=IC50 reading_unit=nM limit_sign=> obs_value=50000
compound="CC(=O)N(CC1CCN(c2ncc(C(=O)NO)cn2)CC1)C1(C(=O)NCc2ccccc2)CCOC1 (configuration not stated)" observable=IC50 reading_unit=nM limit_sign== obs_value=29500
compound=CC(C)c1ccc(C(=O)N(CC(=O)NC2CCCCC2)CC2CCN(c3ncc(C(=O)NO)cn3)CC2)cc1 observable=IC50 reading_unit=nM limit_sign== obs_value=427
compound=CC(C)c1ccc(C(=O)N(CC(=O)NCc2ccccc2)CC2CCN(c3ncc(C(=O)NO)cn3)CC2)cc1 observable=IC50 reading_unit=nM limit_sign== obs_value=1560
compound=Cc1ccc(C(=O)N(CC(=O)NC2CCCCC2)CC2CCN(c3ncc(C(=O)NO)cn3)CC2)c(C)c1 observable=IC50 reading_unit=nM limit_sign== obs_value=1040
compound=O=C(NO)c1cnc(N2CCC(CNCc3nnnn3CCc3c[nH]c4ccccc34)CC2)nc1 observable=IC50 reading_unit=nM limit_sign== obs_value=9870
compound="CC(=O)N(CC1CCN(c2ncc(C(=O)NO)cn2)CC1)C1(C(=O)NCc2ccccc2)CCNC1 (configuration not stated)" observable=IC50 reading_unit=nM limit_sign=> obs_value=50000
compound="O=CN(CC1CCN(c2ncc(C(=O)NO)cn2)CC1)C1(C(=O)NCc2ccccc2)CCNC1 (configuration not stated)" observable=IC50 reading_unit=nM limit_sign== obs_value=11900
compound="CC(=O)N(CC1CCN(c2ncc(C(=O)NO)cn2)CC1)C1(C(=O)NC(C)(C)C)CCNC1 (configuration not stated)" observable=IC50 reading_unit=nM limit_sign=> obs_value=50000
compound=Cn1cc(CNCC2CCN(c3ncc(C(=O)NO)cn3)CC2)c2ccccc21 observable=IC50 reading_unit=nM limit_sign== obs_value=13
compound="CC(=O)N(CC1CCN(c2ncc(C(=O)NO)cn2)CC1)C1(C(=O)NCCc2c[nH]c3ccccc23)CCNC1 (configuration not stated)" observable=IC50 reading_unit=nM limit_sign=> obs_value=50000
compound=CC(C)(C)n1nnnc1CNCC1CCN(c2ncc(C(=O)NO)cn2)CC1 observable=IC50 reading_unit=nM limit_sign== obs_value=3630
compound=CC(C)(C)CC(C)(C)n1nnnc1CNCC1CCN(c2ncc(C(=O)NO)cn2)CC1 observable=IC50 reading_unit=nM limit_sign== obs_value=1040
compound=O=C(NO)c1cnc(N2CCC(CNCc3nnnn3C3CCCC3)CC2)nc1 observable=IC50 reading_unit=nM limit_sign== obs_value=2430
compound=O=C(NO)c1cnc(N2CCC(CNCc3nnnn3C3CCCCC3)CC2)nc1 observable=IC50 reading_unit=nM limit_sign== obs_value=1780
compound=CN(C)c1ccc(C(=O)N(CC(=O)NCc2ccccc2)CC2CCN(c3ncc(C(=O)NO)cn3)CC2)cc1 observable=IC50 reading_unit=nM limit_sign== obs_value=2860
compound=O=C(NO)c1cnc(N2CCC(CNCc3nnnn3Cc3ccccc3)CC2)nc1 observable=IC50 reading_unit=nM limit_sign== obs_value=5530
